Some sequences, each annotated with its measured pIC50.
Target: HLA-DR DRB3*0101 (DR52) (Homo sapiens, UniProt P01903+P79483)
Test: biochemical
Assay type: binding
pIC50: −log10 of the molar value. No end group written: not given here.

// solved cases for pIC50 follow
[[record]]
entry_sequence = "LGFLQRSSNCQSQKL"
value = "< 2.76"

[[record]]
entry_sequence = "GAPLGAAARALAHGV"
value = "< 4.15"

[[record]]
entry_sequence = "LWQLNGRLEYTLKDR"
value = 5.36


Answer with the recorded pIC50 of HPLYNMSLLKHQSLR only. < 4.83

Answer with the recorded pIC50 of YDPLYCESVHNFTLP only. < 5.05

Answer with the recorded pIC50 of VRYTTEGGTKSEVEDVIPEG only. < 4.60
